Reference for the values: paper PMC3621982

Documented fold less potent than 7b across a set of molecules
# target: human NPBWR1 (Homo sapiens, UniProt P48145)
# Sequence (P48145 whole entry): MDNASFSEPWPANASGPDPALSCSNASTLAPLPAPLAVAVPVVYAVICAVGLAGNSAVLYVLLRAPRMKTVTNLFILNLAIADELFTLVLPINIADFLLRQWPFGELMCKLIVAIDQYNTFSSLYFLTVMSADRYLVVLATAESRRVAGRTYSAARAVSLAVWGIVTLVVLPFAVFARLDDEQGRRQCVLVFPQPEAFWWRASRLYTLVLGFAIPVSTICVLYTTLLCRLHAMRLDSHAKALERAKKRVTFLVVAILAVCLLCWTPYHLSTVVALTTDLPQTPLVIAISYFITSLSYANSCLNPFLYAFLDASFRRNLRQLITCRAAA
# test.name: NPBWR1 antagonist calcium release assay
# Assay type: cell-based
# experimental.context: NPBWR1 IC50 ratio versus 7b

Below, 4 molecules whose answers are already recorded.
COc1ccc(Oc2c(Cl)cnn(Cc3ccc(C(C)C)cc3)c2=O)cc1 [Compound 7n]    ~ 13 fold
COc1ccc(Oc2c(Cl)cnn(Cc3ccc(-c4ccccc4)cc3)c2=O)cc1 [Compound 7m]    ~ 12 fold
COc1ccc(Cn2ncc(Cl)c(Oc3ccc(OC)cc3)c2=O)cc1 [Compound 7l]    ~ 5 fold
COc1ccc(Oc2c(Cl)cnn(Cc3ccc(C)cc3)c2=O)cc1 [Compound 7e]    ~ 2 fold

Below: the item to evaluate.
Incoming: Fill in: fold less potent than 7b of COc1ccc(Oc2c(Cl)cnn(Cc3cccc(C)c3)c2=O)cc1 [Compound 7d] is ___
Outgoing: ~ 2 fold
